Listed below: koff values for each entry.
biological target: T1, human CD3e/g antigen (ACRO, catalog number CDG-H52W5) (human, UniProt P07766 23-126; P09693 23-116); assay: SPR (Biacore 8K), antibody captured via anti-human Fc
T1 construct: Bought reagent used as the Biacore analyte; also called hCD3e/g
Measure: koff (s⁻¹)

>  <Binder>
hAb001-21 (antibody, V domains shown, Humanized; constant regions not specified) VH: QVQLVQSGAEVKKPGASVKVSCKASGYSFTNYYMHWVRQAPGQRLEWIGWTYPGNNNIKYNEKFKGRVTITADTSASTAYMELSSLRSEDTAVYYCARDGYGYYFFDYWGQGTLVTVSS VL: DIVMTQSPDSLAVSLGERATINCKSSQSLLNNRTRKNYLAWYQQKPGQPPKLLIYWASTRESGVPDRFSGSGSGTDFTLTISSLQAEDVAVYYCKQSYTLRTFGGGTKLEIK

>  <Measure>
koff

>  <Unit Label>
s⁻¹

>  <Reading>
0.00669

$$$$
>  <Binder>
hAb008-20 (antibody, V domains shown, Humanized; constant regions not specified) VH: QVQLVQSGAEVKKPGASVKVSCKASGYTFTDYTVNWVRQAPGQRLEWIGYINPFNSYTKYNQKFKDRVTITADTSASTAYMELSSLRSEDTAVYYCANSVSTYWGQGTTVTVSS VL: DVVMTQSPLSLPVTLGQPASISCKSSQSLLDSDGKTYLNWFQQRPGQSPRRLIYLVSKLNSGVPDRFSGSGSGTDFTLKISRVEAEDVGVYYCWQGTHFPRTFGGGTKLEIK

>  <Measure>
koff

>  <Unit Label>
s⁻¹

>  <Reading>
0.00152

$$$$
>  <Binder>
hAb001-23 (antibody, V domains shown, Humanized; constant regions not specified) VH: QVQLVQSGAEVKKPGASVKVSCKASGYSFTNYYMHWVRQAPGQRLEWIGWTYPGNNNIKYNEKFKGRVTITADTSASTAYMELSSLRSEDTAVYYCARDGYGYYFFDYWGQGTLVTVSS VL: DIVMTQSPDSLAVSLGERATMSCKSSQSLLNNRTRKNYLAWYQQKPGQPPKLLIYWASTRESGVPDRFSGSGSGTDFTLTISSLQAEDVAVYYCKQSYTLRTFGGGTKLEIK

>  <Measure>
koff

>  <Unit Label>
s⁻¹

>  <Reading>
0.00696

$$$$
